Target: SARS-CoV-2 spike protein receptor binding domain (RBD2) (SARS-CoV-2, UniProt P0DTC2 319-537)
Assay: SPR
pKd: −log10 of the molar value.
Decision: pKd compared against 6; not below it gives met, below it gives not met.

In: Reported pKd reaches at least 6 for F07 minibody (scFv-Fc) (Fc fusion) SYVLTQPPSVSVAPGQTARITCGGNNIGSKSVHWYQQKPGQAPVLVVYDDSDRPSGIPERFSGSNSGNTATLIISRVEAGDEADYYCQVWDSSSVHYVFGTGTKLTVLSGGSTITSYNVYYTKLSSSGTQVQLVQSGAEVKKPGSSVRVSCKVSGYTFTGYYMHWVRQAPGQGLEWMGIINPSGGSTSYAQKFQGRVTMTRDTSTSTVYMELSSLRSEDTAVYYCARVRVGASDAFDIWGQGTMVTVSS ?
Out: met

In: Does H01 minibody (scFv-Fc) (Fc fusion) QPGLTQPPSVSLAPGQTARITCGGNNIGSKSVHWYQQKPGQAPVLVVYDDSDRPSGIPERFSGSNAGNTATLTISRVEAGDEADYYCQVWDSRSDQYVFGTRTKLTVLSGGSTITSYNVYYTKLSSSGAQVTLKESGPVLVKPTETLTLTCTVSGFSLSNARMGVSWIRQPPGKALEWLAHIFSNGEKSYSTSLKSRLTISKDTSKSQVVLTMTNMDPVDTATYYCARTLDYYDSSGYLVGGAFDIWGQGTMVTVSS have a reported pKd of at least 6?
Out: met

In: hey, is pKd for this one >= 6? S01 minibody (scFv-Fc) (Fc fusion, also called 501) EIVMTQSPSSLSASVGDSVTITCQASQDISNYLNWYQQKPGKAPKLLIYDASNLETGVPSRFSGGGSGTDFTLTITSLQPEDIATYYCQQYDNFPPTFGPGTKVDIKSGGSTITSYNVYYTKLSSSDTQVQLVESGGGLVKPGGSLRLSCAASGFTVGSNYMSWVRQAPGKGLEWVSVIYSGGSTYYADSVKGRFTISRDNSKNTLYLQMNSLRAEDTAVYYCARGSSGAWYFDLWGRGTLVTVSS
Out: not met

In: Please check the record G07 minibody (scFv-Fc) (Fc fusion) QSVLIQPPSASGTPGQRVTISCSGSNSNFGSNSVSWYQQRPGTAPKLLIEGNNQRPSGVPERFSGSKSGTSASLAISGLQSEDEAEYSCASWDDSLNAFVFGPGTKLTVLSGGSAITSYNVYYTKLSSSGTQVQLVQSGAEVKKPGESLKISCKGSGYSFTSYWIGWVRQMPGKGLEWMGIIYPGDSDIRYSPSFQGQVTISADKSFSSAYLQWSSLKASDTAMYYCARLGATGAFDIWGQGTTVTVSS and state if its pKd is at or above 6.
Out: not met

In: Check if pKd >= 6 (inclusive). Item: R04 IgG1 (antibody, V domains shown) VH: QVQLQQSGPGLVKSSQTLSLTCAISGDSVSSNGAAWHWIRQSPSRGLEWLGRTYYRSGWYNDYAVSVKSRITINQDTSKNQFSLQLNSVTPEDTAVYFCAREGGGGRMDVWSQGTTVTVSS VL: EIVMTQSPSSLSASVGDRVTITCQASQDISNYLNWCQQKPGKAPKLLIYDASNLETGVPSRFSGSGSGTGFTFTISSLQPEDFATYYCQQSYSTPYTFGQGTKVEIK
Out: not met
